The measurements presented in this section are drawn from patent US8969565B2.

biological target: AAK1 (Homo sapiens, UniProt Q2M2I8); construct: HA; expressed in transfected cells; host or cells: HEK293F; experiment: P81 filter plate assay; format: biochemical; conditions: full-length human AAK1, Mu2 substrate
Sequence (Q2M2I8 1-863 isoform Q2M2I8-2): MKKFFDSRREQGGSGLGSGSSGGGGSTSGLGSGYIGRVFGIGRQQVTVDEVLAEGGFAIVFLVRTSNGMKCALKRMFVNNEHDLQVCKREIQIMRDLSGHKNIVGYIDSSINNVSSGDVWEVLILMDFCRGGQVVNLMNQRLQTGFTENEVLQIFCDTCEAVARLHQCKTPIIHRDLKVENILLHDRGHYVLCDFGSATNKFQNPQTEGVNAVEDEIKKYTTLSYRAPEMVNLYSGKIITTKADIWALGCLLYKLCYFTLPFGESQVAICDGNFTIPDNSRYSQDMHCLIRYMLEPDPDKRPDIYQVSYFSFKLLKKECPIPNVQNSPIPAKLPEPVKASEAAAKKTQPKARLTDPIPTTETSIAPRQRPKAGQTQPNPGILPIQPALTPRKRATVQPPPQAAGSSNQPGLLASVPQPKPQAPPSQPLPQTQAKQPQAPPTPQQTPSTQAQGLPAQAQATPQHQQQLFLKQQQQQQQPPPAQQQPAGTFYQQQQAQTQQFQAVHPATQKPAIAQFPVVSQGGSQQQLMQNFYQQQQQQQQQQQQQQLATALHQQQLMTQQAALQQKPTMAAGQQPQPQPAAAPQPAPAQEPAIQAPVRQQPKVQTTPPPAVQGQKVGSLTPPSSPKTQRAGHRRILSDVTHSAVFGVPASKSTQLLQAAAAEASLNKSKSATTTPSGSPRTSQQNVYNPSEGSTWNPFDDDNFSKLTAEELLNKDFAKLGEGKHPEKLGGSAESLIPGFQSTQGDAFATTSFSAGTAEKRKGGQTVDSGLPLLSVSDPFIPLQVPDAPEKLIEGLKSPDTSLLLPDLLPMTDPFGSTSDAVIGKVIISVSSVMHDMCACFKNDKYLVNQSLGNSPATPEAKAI
Reported IC50 is given for each of the following compounds.

Use these answered entries as a reference point.
[in] Fill blank: measured IC50 of the compound CC(C)OC(=O)N(C)[C@H]1CCN(c2ccc3ncc(-c4ccc(CN)cc4)n3n2)C1 is ____.
[out] ≤ 10 nM

[in] Entry to check: CN(C(=O)CC1CC1)[C@H]1CCN(c2ccc3ncc(-c4cccnc4O)n3n2)C1
[out] ≤ 10 nM

[in] Entry to check: Cc1ccc(-c2cnc3ccc(NCCOC4CCCC4)nn23)s1
[out] ≤ 100 nM

More entries:
[in] Fill blank: measured IC50 of the compound COc1ncccc1-c1cnc2ccc(N3CCN(C(=O)[C@@H](N)CC(C)C)CC3)nn12 is ____.
[out] ≤ 10 nM

[in] Entry to check: CC(C)CC(=O)N1CCC[C@H]1CNc1ccc2ncc(-c3ccccc3)n2n1
[out] ≤ 10 nM

[in] Entry to check: CC(C)OC(=O)N1CCN(c2ccc3ncc(-c4ccc[nH]c4=O)n3n2)CC1
[out] ≤ 10 nM
